Data provenance is PubChem BioAssay AID1963854.

Quick reference: viability, T/C of the listed items.
Tested on: 186277-243-T-J2-PDC complex spheroid viability
Experiment: Anticancer human tumor 186277-243-T-J2-PDC patient-derived colon adenocarcinoma cell line growth inhibition [POLQ]
Conditions: second compound 0.0316 µM; first compound 10 µM; active compounds read low
measurement.label: viability, T/C (%)

COc1cc(C2c3cc4c(cc3C(OC3OC5COC(C)OC5C(O)C3O)C3COC(=O)C23)OCO4)cc(OC)c1O (stereo not drawn) + COC1C(OC(N)=O)C(O)C(Oc2ccc3c(O)c(NC(=O)c4ccc(O)c(CC=C(C)C)c4)c(=O)oc3c2C)OC1(C)C: 11.6
Nc1ccn(C2OC(CO)C(O)C2(F)F)c(=O)n1 (stereo not drawn) + Cc1cccc(N(C)C(=O)C2C(O)CCN2c2nc(C)cc(C(F)(F)F)c2C#N)c1: 6.44
CC1COCCN1c1cc(C2(O)CC3CCC(C2)O3)c2cnn(-c3ccn[nH]3)c2n1 (stereo not drawn) + Nc1ccc(C#CCN(C(=O)Cc2ncc(C(F)(F)F)cc2C(F)(F)F)c2ccc(F)cc2)nn1: 7.56

###

System: 186277-243-T-J2-PDC complex spheroid viability
Assay: Anticancer human tumor 186277-243-T-J2-PDC cell line growth inhibition [POLQ]; active = viability on the fitted dose curve at most 10% of control; inactive = the rest;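 note: spheroids exposed to compounds for seven days; 100% = DMSO vehicle control viability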
Details: second compound 0.0316 µM; first compound 0.316 µM
Experimental: Multicellular complex tumor spheroid response to Polymerase (POL) inhibitors (novobiocin, ART-558, RP6685) in combination with a variety of drugs and investigational agents in selected tumor cell lines The POL inhibitors (novobiocin, ART-558, and RP6685) were evaluated both individually and in combination with standard of care and investigational anticancer small molecules within a complex spheroid model of solid tumors. . […]
Outcomes: 1 (yes) for active, 0 (no) for inactive

C#Cc1c(F)ccc2cc(O)cc(-c3ncc4c(N5CC6CCC(C5)N6)nc(OCC56CCCN5CC(F)C6)nc4c3F)c12 (stereo not drawn) + COC1C(OC(N)=O)C(O)C(Oc2ccc3c(O)c(NC(=O)c4ccc(O)c(CC=C(C)C)c4)c(=O)oc3c2C)OC1(C)C: 0 (no)
CCc1c2c(nc3ccc(O)cc13)-c1cc3c(c(=O)n1C2)COC(=O)[C@]3(O)CC + Cc1cccc(N(C)C(=O)C2C(O)CCN2c2nc(C)cc(C(F)(F)F)c2C#N)c1: 1 (yes)
CC1COCCN1c1cc(-c2ccnn2C)c2ccnc(-c3ccn[nH]3)c2n1 (stereo not drawn) + Nc1ccc(C#CCN(C(=O)Cc2ncc(C(F)(F)F)cc2C(F)(F)F)c2ccc(F)cc2)nn1: 1 (yes)

###

System: 186277-243-T-J2-PDC complex spheroid viability
Test: Anticancer human tumor 186277-243-T-J2-PDC cell line growth inhibition [POLQ]; active = viability on the fitted dose curve at most 10% of control; inactive = the rest;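 note: spheroids exposed to compounds for seven days; 100% = DMSO vehicle control viability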
Conditions: second compound 1 µM; first compound 0.0316 µM
Outcomes: true for active, false for inactive

CCc1c2c(nc3ccc(O)cc13)-c1cc3c(c(=O)n1C2)COC(=O)[C@]3(O)CC + COC1C(OC(N)=O)C(O)C(Oc2ccc3c(O)c(NC(=O)c4ccc(O)c(CC=C(C)C)c4)c(=O)oc3c2C)OC1(C)C: false
C#Cc1c(F)ccc2cc(O)cc(-c3ncc4c(N5CC6CCC(C5)N6)nc(OCC56CCCN5CC(F)C6)nc4c3F)c12 (centres undefined) + COC1C(OC(N)=O)C(O)C(Oc2ccc3c(O)c(NC(=O)c4ccc(O)c(CC=C(C)C)c4)c(=O)oc3c2C)OC1(C)C: false
CC1COCCN1c1cc(-c2ccnn2C)c2ccnc(-c3ccn[nH]3)c2n1 (centres undefined) + Nc1ccc(C#CCN(C(=O)Cc2ncc(C(F)(F)F)cc2C(F)(F)F)c2ccc(F)cc2)nn1: false
CC1COCCN1c1cc(C2(O)CC3CCC(C2)O3)c2cnn(-c3ccn[nH]3)c2n1 (centres undefined) + COC1C(OC(N)=O)C(O)C(Oc2ccc3c(O)c(NC(=O)c4ccc(O)c(CC=C(C)C)c4)c(=O)oc3c2C)OC1(C)C: false
CCCS(=O)(=O)Nc1ccc(F)c(C(=O)c2c[nH]c3ncc(-c4ccc(Cl)cc4)cc23)c1F + COC1C(OC(N)=O)C(O)C(Oc2ccc3c(O)c(NC(=O)c4ccc(O)c(CC=C(C)C)c4)c(=O)oc3c2C)OC1(C)C: false
COc1cccc2c1C(=O)c1c(O)c3c(c(O)c1C2=O)CC(O)(C(=O)CO)CC3OC1CC(N)C(O)C(C)O1 (centres undefined) + Cc1cccc(N(C)C(=O)C2C(O)CCN2c2nc(C)cc(C(F)(F)F)c2C#N)c1: false
COc1ccc([C@@H](O)c2cc(-c3ncnc4cc(N5CCOCC5)ccc34)c(F)cc2Cl)nn1 + COC1C(OC(N)=O)C(O)C(Oc2ccc3c(O)c(NC(=O)c4ccc(O)c(CC=C(C)C)c4)c(=O)oc3c2C)OC1(C)C: false
CCc1c2c(nc3ccc(O)cc13)-c1cc3c(c(=O)n1C2)COC(=O)[C@]3(O)CC + Cc1cccc(N(C)C(=O)C2C(O)CCN2c2nc(C)cc(C(F)(F)F)c2C#N)c1: false
CCc1cc2c(N3CCc4c(cc(Cn5ccnc5)cc4-c4cn(C)nc4C(F)(F)F)C3=O)ccnc2c(OC)n1 + Cc1cccc(N(C)C(=O)C2C(O)CCN2c2nc(C)cc(C(F)(F)F)c2C#N)c1: false
CC1COCCN1c1cc(C2(O)CC3CCC(C2)O3)c2cnn(-c3ccn[nH]3)c2n1 (centres undefined) + Cc1cccc(N(C)C(=O)C2C(O)CCN2c2nc(C)cc(C(F)(F)F)c2C#N)c1: false
C=CCn1c(=O)c2cnc(Nc3ccc(N4CCN(C)CC4)cc3)nc2n1-c1cccc(C(C)(C)O)n1 + Nc1ccc(C#CCN(C(=O)Cc2ncc(C(F)(F)F)cc2C(F)(F)F)c2ccc(F)cc2)nn1: false
CNCc1ccc(-c2[nH]c3cc(F)cc4c3c2CCNC4=O)cc1 + Cc1cccc(N(C)C(=O)C2C(O)CCN2c2nc(C)cc(C(F)(F)F)c2C#N)c1: false
O=c1[nH]cc(F)c(=O)[nH]1 + Nc1ccc(C#CCN(C(=O)Cc2ncc(C(F)(F)F)cc2C(F)(F)F)c2ccc(F)cc2)nn1: false
COc1cccc(OCCCN)c1-c1cc(Nc2cnc(C#N)cn2)n[nH]1 + Cc1cccc(N(C)C(=O)C2C(O)CCN2c2nc(C)cc(C(F)(F)F)c2C#N)c1: true
CCCS(=O)(=O)Nc1ccc(F)c(C(=O)c2c[nH]c3ncc(-c4ccc(Cl)cc4)cc23)c1F + Cc1cccc(N(C)C(=O)C2C(O)CCN2c2nc(C)cc(C(F)(F)F)c2C#N)c1: false
CCc1cc2c(N3CCc4c(cc(Cn5ccnc5)cc4-c4cn(C)nc4C(F)(F)F)C3=O)ccnc2c(OC)n1 + COC1C(OC(N)=O)C(O)C(Oc2ccc3c(O)c(NC(=O)c4ccc(O)c(CC=C(C)C)c4)c(=O)oc3c2C)OC1(C)C: false
COc1cccc2c1C(=O)c1c(O)c3c(c(O)c1C2=O)CC(O)(C(=O)CO)CC3OC1CC(N)C(O)C(C)O1 (centres undefined) + Nc1ccc(C#CCN(C(=O)Cc2ncc(C(F)(F)F)cc2C(F)(F)F)c2ccc(F)cc2)nn1: false
COc1cc(C2c3cc4c(cc3C(OC3OC5COC(C)OC5C(O)C3O)C3COC(=O)C23)OCO4)cc(OC)c1O (centres undefined) + COC1C(OC(N)=O)C(O)C(Oc2ccc3c(O)c(NC(=O)c4ccc(O)c(CC=C(C)C)c4)c(=O)oc3c2C)OC1(C)C: false
Cn1ncnc1[C@H]1c2n[nH]c(=O)c3cc(F)cc(c23)N[C@@H]1c1ccc(F)cc1 + COC1C(OC(N)=O)C(O)C(Oc2ccc3c(O)c(NC(=O)c4ccc(O)c(CC=C(C)C)c4)c(=O)oc3c2C)OC1(C)C: false
